Tested on: blackgrass
Experiment: Test C postemergence
Format: in vivo, Alopecurus myosuroides
Conditions: 500 g ai/ha, postemergence, 10 days, 0 to 100 scale (0 no effect, 100 complete control)
The label yes is reserved for Plant response rating, Blackgrass strictly under 60; no covers values equal to or above it.

compound=Cc1nnc(-c2cccc(C(=O)N3C[C@H](C)Oc4c(Cl)cccc43)c2)o1 category=yes
compound="CCOCC1CN(C(=O)c2cc(-n3cnc(C(C)(C)C)n3)ccc2OC)c2cccc(Cl)c2O1 (stereo not drawn)" category=yes
compound=CC(=O)c1ncn(-c2ccc(C)c(C(=O)N3C[C@H](C)Oc4c(Cl)cccc43)c2)n1 category=no
compound="CC(C)c1ncn(-c2cc(C(=O)N3CC(C(F)(F)F)Oc4c(Cl)cccc43)ccn2)n1 (single isomer, unassigned)" category=no
compound="CCOCC1CN(C(=O)c2cc(-n3cnc(C4CCC4)n3)ccc2OC)c2cccc(Cl)c2O1 (stereo not drawn)" category=yes

====

Ragweed plant response rating listing for selected molecules.
Tested on: ragweed
Assay: Test A postemergence
Type: in vivo, Ambrosia artemisiifolia
Settings: 125 g ai/ha, postemergence, 10 days; 0 to 100 scale, 0 no effect, 100 complete control
Excerpt: […]
readoutType: Ragweed plant response rating

molecule=C[C@H]1CN(C(=O)c2cc(C3CC3)cc(-n3cncn3)c2)c2cccc(Cl)c2O1 readouttype="Ragweed plant response rating" observedresult=20
molecule=Cc1ccc(-n2cnc(C3CCC3)n2)cc1C(=O)N1C[C@H](C)Oc2c(C)cccc21 readouttype="Ragweed plant response rating" observedresult=50
molecule=C[C@H]1CN(C(=O)c2cccc(-n3cnc(Br)n3)c2)c2cccc(Cl)c2O1 readouttype="Ragweed plant response rating" observedresult=0
molecule=C[C@H]1CN(C(=O)c2cc(Br)cc(-n3cncn3)c2)c2cccc(Cl)c2O1 readouttype="Ragweed plant response rating" observedresult=0
molecule=C[C@H]1CN(C(=O)c2cccc(-n3cnc(CC4CCCCC4)n3)c2)c2cccc(Cl)c2O1 readouttype="Ragweed plant response rating" observedresult=0
molecule=CC(C)c1ncn(-c2ccc(O)c(C(=O)N3C[C@H](C)Oc4c(Cl)cccc43)c2)n1 readouttype="Ragweed plant response rating" observedresult=0
molecule=Cc1ccc(-n2cnc(C(C)C)n2)cc1C(=O)N1C[C@H](C)Oc2c(C)cccc21 readouttype="Ragweed plant response rating" observedresult=40
molecule=Cc1cccc2c1O[C@@H](C)CN2C(=O)c1cccc(-n2cnc(COC(C)C)n2)c1 readouttype="Ragweed plant response rating" observedresult=0
molecule=Cc1ccc(-n2cnc(CO)n2)cc1C(=O)N1C[C@H](C)Oc2c(Cl)cccc21 readouttype="Ragweed plant response rating" observedresult=50
molecule="CCC(C)c1ncn(-c2cccc(C(=O)N3C[C@H](C)Oc4c(C)cccc43)c2)n1 (stereo partly shown)" readouttype="Ragweed plant response rating" observedresult=50

====

Tested on: blackgrass
Assay: Test C preemergence
Type: in vivo, Alopecurus myosuroides
Conditions: Test C, preemergence, 125 g ai/ha; 0 to 100 scale (0 no effect, 100 complete control)
readoutType: Blackgrass plant response rating

compound=COc1ncn(-c2cccc(C(=O)N3C[C@H](C)Oc4c(C)cccc43)c2)n1 observedresult=40
compound=C[C@H]1CN(C(=O)c2cc(-n3cncn3)cc3c2OCCO3)c2cccc(Cl)c2O1 observedresult=20
compound=CCn1cnc(-c2cccc(C(=O)N3C[C@H](C)Oc4c(C)cccc43)c2)n1 observedresult=0
compound=Cc1ccc(-n2cnc(C3(C)CCC3)n2)cc1C(=O)N1C[C@H](C)Oc2c(Cl)cccc21 observedresult=30
compound=Cc1cccc2c1O[C@@H](C)CN2C(=O)c1cccc(-n2cnc(-c3ccccc3)n2)c1 observedresult=40
compound=COC(=O)N(C)c1ncn(-c2cccc(C(=O)N3C[C@H](C)Oc4c(C)cccc43)c2)n1 observedresult=0
compound=COC[C@H]1CN(C(=O)c2cc(-n3cnc(C4CC4)n3)ccc2OC)c2cccc(Cl)c2O1 observedresult=50
compound=COc1c(F)cc(-n2cnc(C(C)C)n2)cc1C(=O)N1C[C@H](C)Oc2c(Cl)cccc21 observedresult=40
compound=CC(C)c1ncn(-c2ccc(SC(F)(F)F)c(C(=O)N3C[C@H](C)Oc4c(Cl)cccc43)c2)n1 observedresult=20
compound="Cc1cccc2c1OC(C(F)(F)F)CN2C(=O)c1cccc(-n2cnc(C(C)C)n2)c1 (single isomer, unassigned)" observedresult=90
compound=CCc1ccc(-n2cnc(C(C)C)n2)cc1C(=O)N1C[C@H](C)Oc2c(C)cccc21 observedresult=60
compound=CCOc1ncn(-c2cccc(C(=O)N3C[C@H](C)Oc4c(Cl)cccc43)c2)n1 observedresult=10
compound=COc1cc(C(=O)N2C[C@H](C)Oc3c(Cl)cccc32)cc(-n2cnc(C(C)C)n2)c1 observedresult=60
compound=COc1c(C)cc(-n2cnc(C(C)C)n2)cc1C(=O)N1C[C@H](C)Oc2c(Cl)cccc21 observedresult=60
compound=CC(C)c1ncn(-c2cc3c(c(C(=O)N4C[C@H](C)Oc5c(Cl)cccc54)c2)OCCO3)n1 observedresult=60
compound=COC[C@H]1CN(C(=O)c2cc(-n3cnc(C(C)(C)C)n3)ccc2C)c2cccc(Cl)c2O1 observedresult=40
